Origin of measurements: patent US10144715B2

- TARGET OF ASSAY: UniProt P55055
- Sequence (P55055 222-460): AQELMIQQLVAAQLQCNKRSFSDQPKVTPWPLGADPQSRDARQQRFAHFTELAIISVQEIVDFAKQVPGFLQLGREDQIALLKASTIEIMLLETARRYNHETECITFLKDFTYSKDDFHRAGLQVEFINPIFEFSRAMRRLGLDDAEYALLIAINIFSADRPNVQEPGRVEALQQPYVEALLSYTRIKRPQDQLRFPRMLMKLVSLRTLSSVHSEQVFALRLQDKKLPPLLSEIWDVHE
- PROTOCOL: biochemical
MEASUREMENT TYPE: IC50

## Task Which value of IC50 has been reported for CC(C)[C@H]1CN(c2cccc(S(C)(=O)=O)c2)CCN1C(=O)OC(C)(C)C in the records?
## Result > 50 µM

====

Entries annotated with measured Cell LXRα efficacy
- TARGET OF ASSAY: Gal4 DNA binding domain fused to the LBD of LXRα in HEK293 cells (Homo sapiens (Human))
- Sequence (Q13133 209-447): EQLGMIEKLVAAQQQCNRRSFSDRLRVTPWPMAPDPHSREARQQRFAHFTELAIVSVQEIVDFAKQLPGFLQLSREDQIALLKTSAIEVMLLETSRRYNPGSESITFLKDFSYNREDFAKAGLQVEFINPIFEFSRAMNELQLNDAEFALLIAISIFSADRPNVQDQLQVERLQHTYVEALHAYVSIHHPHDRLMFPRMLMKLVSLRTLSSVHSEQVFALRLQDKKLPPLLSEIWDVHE
- PROTOCOL: LXR luciferase transcriptional reporter gene assay, agonist mode, LXRα
- Type: cell-based

## Task Which value of Cell LXRα efficacy has been reported for CC(C)[C@@H]1CN(c2cccc(S(C)(=O)=O)c2)CCN1c1ccc(C(F)F)cn1 [7-34] in the records?
## Result 13999 (55) %

## Task CS(=O)(=O)c1cc(N2CCN(C[C@H]3CC[C@@H](C(F)(F)F)CC3)[C@@H](c3ccccc3Cl)C2)ccc1C(N)=O (single isomer, unassigned) [Cpd No 4-8] , same question.
## Result 782 (91) %

## Task CC(C)[C@@H]1CN(c2ccc(F)c(S(C)(=O)=O)c2)CCN1c1nc2ccc(C#N)cc2s1 [7-53] , same question.
## Result 795 (40) %

## Task COCCN(C)Cc1cnc(N2CCN(c3ccc(F)c(S(C)(=O)=O)c3)C[C@H]2C(C)C)nc1C(F)(F)F [15-10] , same question.
## Result 5353 (16) %

====

- TARGET OF ASSAY: UniProtKB Q13133
- PROTOCOL: Human LXRα coactivator recruitment FRET assay, agonist mode
- Format: biochemical
- MEASUREMENT PARAMETERS: agonist mode
Entries annotated with measured FRET LXRα efficacy
Give a bare numeral; the unit % is implied.

Below: 6 compounds and their reported FRET LXRα efficacy.
CS(=O)(=O)c1cccc(N2CCN(C[C@H]3CC[C@H](C(F)(F)F)CC3)[C@@H](c3ccccc3)C2)c1 (single isomer, unassigned); 74
CC(C)[C@@H]1CN(c2ccc(C#N)c(S(C)(=O)=O)c2)CCN1c1cc(C(F)(F)F)ccn1; 191
CC(C)C[C@@H]1CN(c2cccc(S(C)(=O)=O)c2)CCN1C(=O)OC(C)(C)C; 43
CC(C)[C@@H]1CN(c2ccc(C#N)c(S(C)(=O)=O)c2)CCN1C(=O)OC(C)(C)C; 76
Cc1cccc(C2CN(c3cccc(S(C)(=O)=O)c3)CCN2Cc2ccc(C(F)(F)F)nc2)c1 (centres unmarked); 32
CC(C)[C@@H]1CN(c2cccc(S(C)(=O)=O)c2)CCN1C(=O)OC(C)(C)C; 60

## Task Which value of FRET LXRα efficacy has been reported for CC1(C)CCC(CN2CCN(c3cccc(S(C)(=O)=O)c3)C[C@@H]2c2ccccc2)CC1 in the records?
## Result 39

## Task CC(C)[C@@H]1CN(c2ccc(C(N)=O)c(S(C)(=O)=O)c2)CCN1c1nccc(C(F)(F)F)n1 , same question.
## Result 87

====

- TARGET OF ASSAY: Gal4 DNA binding domain fused to the LBD of LXRα in HEK293 cells (Homo sapiens (Human))
- PROTOCOL: LXR luciferase transcriptional reporter gene assay, agonist mode, LXRα
- Assay type: cell-based
Entries annotated with measured Cell LXRα efficacy

## Task Which value of Cell LXRα efficacy has been reported for CC(C)[C@@H]1CN(c2ccc(F)c(S(C)(=O)=O)c2)CCN1c1nc2ccccc2s1 [7-56] in the records?
## Result 770 (70) %

## Task CC(C)[C@@H]1CN(c2ccc(F)c(S(C)(=O)=O)c2)CCN1c1ncc(CN(C)C)c(C(F)(F)F)n1 [15-3] , same question.
## Result 1144 (25) %

## Task CC(C)[C@@H]1CN(c2ccc(F)c(S(C)(=O)=O)c2)CCN1c1nccc(C(N)=O)n1 [4-5] , same question.
## Result 15117 (37) %

## Task CC(C)[C@H]1CN(c2cccc(S(C)(=O)=O)c2)CCN1C[C@H]1CC[C@@H](C(F)(F)F)OC1 (single isomer, unassigned) [Cpd No 49-5] , same question.
## Result 578 (64) %

## Task Cc1cc(C(F)(F)F)nc(N2CCN(c3ccc(F)c(S(C)(=O)=O)c3)C[C@H]2C(C)C)n1 [7-18] , same question.
## Result 1110 (61) %
